// pEC50 lookup, one value per entry
Target: T1, CHO-hu α11 (Homo sapiens, UniProt Q9UKX5)
T1 construct: expressed in transfected cells; host or cells: CHO-K1
T1 sequence (Q9UKX5 23-1188): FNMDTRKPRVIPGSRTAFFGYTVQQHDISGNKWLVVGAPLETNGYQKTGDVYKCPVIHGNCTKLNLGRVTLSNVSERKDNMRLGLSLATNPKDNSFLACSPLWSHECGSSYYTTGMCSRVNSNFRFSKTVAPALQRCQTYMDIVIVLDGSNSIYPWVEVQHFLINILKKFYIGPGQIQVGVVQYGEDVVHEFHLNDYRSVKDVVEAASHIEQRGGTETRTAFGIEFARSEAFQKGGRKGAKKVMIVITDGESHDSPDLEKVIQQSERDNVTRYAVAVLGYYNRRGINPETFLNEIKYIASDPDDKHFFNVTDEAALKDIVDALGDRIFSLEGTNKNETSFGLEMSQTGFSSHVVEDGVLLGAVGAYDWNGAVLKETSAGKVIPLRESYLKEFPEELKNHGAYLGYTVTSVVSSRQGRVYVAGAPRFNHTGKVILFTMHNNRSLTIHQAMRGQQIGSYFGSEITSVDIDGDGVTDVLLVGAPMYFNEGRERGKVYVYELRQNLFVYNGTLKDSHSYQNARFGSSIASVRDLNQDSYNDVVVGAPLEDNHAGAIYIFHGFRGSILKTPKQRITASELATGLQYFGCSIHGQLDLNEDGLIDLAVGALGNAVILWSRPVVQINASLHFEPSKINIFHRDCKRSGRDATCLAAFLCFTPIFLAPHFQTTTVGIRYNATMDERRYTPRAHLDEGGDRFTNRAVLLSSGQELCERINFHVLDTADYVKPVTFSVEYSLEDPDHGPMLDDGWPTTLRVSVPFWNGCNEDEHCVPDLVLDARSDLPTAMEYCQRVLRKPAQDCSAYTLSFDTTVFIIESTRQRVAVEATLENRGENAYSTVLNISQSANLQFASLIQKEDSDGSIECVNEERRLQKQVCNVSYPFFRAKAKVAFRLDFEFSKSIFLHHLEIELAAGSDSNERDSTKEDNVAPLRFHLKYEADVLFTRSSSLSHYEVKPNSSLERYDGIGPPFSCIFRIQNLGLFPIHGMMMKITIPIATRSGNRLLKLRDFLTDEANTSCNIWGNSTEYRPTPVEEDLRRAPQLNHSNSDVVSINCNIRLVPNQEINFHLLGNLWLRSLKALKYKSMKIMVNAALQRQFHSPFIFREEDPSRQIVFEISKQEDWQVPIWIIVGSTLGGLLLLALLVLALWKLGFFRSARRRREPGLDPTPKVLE
T1 sequence (P05556 21-798 partner): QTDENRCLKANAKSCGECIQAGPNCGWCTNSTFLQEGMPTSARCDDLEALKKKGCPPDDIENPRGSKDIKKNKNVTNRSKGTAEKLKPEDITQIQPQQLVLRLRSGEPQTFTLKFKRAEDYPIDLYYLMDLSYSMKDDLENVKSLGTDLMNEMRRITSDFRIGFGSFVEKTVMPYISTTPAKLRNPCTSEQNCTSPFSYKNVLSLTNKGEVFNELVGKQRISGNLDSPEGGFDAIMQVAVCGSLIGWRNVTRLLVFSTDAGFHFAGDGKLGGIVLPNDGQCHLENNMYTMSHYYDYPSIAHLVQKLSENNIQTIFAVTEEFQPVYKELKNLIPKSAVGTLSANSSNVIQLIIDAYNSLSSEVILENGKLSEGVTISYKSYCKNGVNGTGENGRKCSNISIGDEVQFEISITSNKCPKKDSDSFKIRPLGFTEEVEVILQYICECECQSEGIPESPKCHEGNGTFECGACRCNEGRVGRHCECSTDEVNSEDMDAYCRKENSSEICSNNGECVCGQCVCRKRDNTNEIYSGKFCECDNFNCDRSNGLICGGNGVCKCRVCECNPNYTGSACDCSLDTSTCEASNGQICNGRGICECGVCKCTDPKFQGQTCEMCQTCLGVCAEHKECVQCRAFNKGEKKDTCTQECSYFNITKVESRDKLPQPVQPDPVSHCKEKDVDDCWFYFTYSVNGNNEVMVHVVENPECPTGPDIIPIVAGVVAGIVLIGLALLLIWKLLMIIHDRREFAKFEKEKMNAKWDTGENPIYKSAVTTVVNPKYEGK
Assay: FACS antibody binding to CHO-K1 cells expressing human α11
Conditions: Table 13, 79E3E3 variants
pEC50: −log10 of the molar value.
MEASUREMENT NAME: pEC50

{"MOLECULE": "A11BB143: 79E3E3 variant; VH SEQ ID NO: 15, VL SEQ ID NO: 22 (antibody, V domains shown) VH: QVQLVQSGAEVKKPGSSVKVSCKASGYTFTDYAMNWVRQAPGQGLEWMGWINTQTGKPTYAQKFQGRVTFTLDESTSTAYMELSSLRSEDTAVYYCTRLGTGNTKGFAYWGQGTLVTVSS VL: DIQMTQSPSSLSASVGDRVTITCKSSQSLLYSENNQDYLAWYQQKPGKVPKLLIYGASNRHTGVPSRFSGSGSGTDFTLTISSLQPEDVATYYCEQTYRYPFTFGQGTKLEIK", "REPORTED MEASUREMENT": 8.67}
{"MOLECULE": "A11BB131: 79E3E3 variant; VH SEQ ID NO: 11, VL SEQ ID NO: 21 (antibody, V domains shown) VH: QIQLVQSGSELKKPGASVKISCKASGYTFTDYAMNWVRQAPGQGLEWMGWINTQTGKPTYAQGFTGRFVFSLDTSVRTAYLQISSLKAEDTAVYFCTRLGTGNTKGFAYWGQGTLVTVSS VL: DIQITQSPSSLSASVGDRVTITCKSSQSLLYSENNQDYLAWYQQKPGKVPKLLIYGASNRHTGVPSRFSGSGSGTDFTLTISSLQPEDVATYYCEQTYRYPFTFGQGTKLEIK", "REPORTED MEASUREMENT": 8.60}
